- Test system: Mycobacterium tuberculosis
- assay: Antimycobacterial activity against isoniazid, rifamycin and streptomycin-resistant Mycobacterium tuberculosis 9449/2006 after 21 days
- Format: functional
- conditionContext: 9449/2006, 504 h
quantityMeasured: MIC

smilesStr	testedSystem	MIC
NNC(=O)c1ccncc1	Mycobacterium tuberculosis	16 µM
CCOP(=O)(OCC)Oc1ccc(Cl)cc1C(=O)Nc1ccc(C(F)(F)F)cc1	Mycobacterium tuberculosis	1 µM
CCOP(=O)(OCC)Oc1cc(Cl)ccc1C(=O)Nc1ccc(C(F)(F)F)cc1	Mycobacterium tuberculosis	1 µM
CCOP(=O)(OCC)Oc1ccc(Br)cc1C(=O)Nc1ccc(C(F)(F)F)cc1	Mycobacterium tuberculosis	1 µM
CCOP(=O)(OCC)Oc1ccc(Cl)cc1C(=O)Nc1ccc(Cl)c(Cl)c1	Mycobacterium tuberculosis	1 µM

Field: next compound
Request the reported MIC associated with CCOP(=O)(OCC)Oc1ccc(Br)cc1C(=O)Nc1ccc(Cl)c(Cl)c1
1 µM

---

// MIC lookup, one value per entry
- System: Mycobacterium tuberculosis
- assay: Antimycobacterial activity against isoniazid, rifamycin and streptomycin-resistant Mycobacterium tuberculosis 9449/2006 after 14 days
- Type: functional
- conditionContext: 9449/2006, 336 h
Write the value in µM as a bare number.

Example molecules with recorded MIC:
molecule	MIC (µM)
CCOP(=O)(OCC)Oc1ccc(Cl)cc1C(=O)Nc1ccc(C(F)(F)F)cc1	1
CCOP(=O)(OCC)Oc1ccc(Cl)cc1C(=O)Nc1ccc(Cl)c(Cl)c1	1
NNC(=O)c1ccncc1 [ISONIAZID]	16
CCOP(=O)(OCC)Oc1ccc(Br)cc1C(=O)Nc1ccc(C(F)(F)F)cc1	1
CCOP(=O)(OCC)Oc1ccc(Br)cc1C(=O)Nc1ccc(Cl)c(Cl)c1	1

Request the reported MIC associated with CCOP(=O)(OCC)Oc1cc(Cl)ccc1C(=O)Nc1ccc(C(F)(F)F)cc1
1

Source of measurements: ChEMBL document CHEMBL3102784
